biological target: Solute carrier family 2, facilitated glucose transporter member 1 (Homo sapiens) (UniProt P11166); test: ST_JUDE_LEISH: Cytotoxicity at 2uM final concentration against transgenic Leishmania Mexicana promastigotes LmGLUT1 that are glucose transport deficient and complemented with the human glucose transporter GLUT1. Activity is measured by DNA content using SYBR green in vitro; format: functional
Sequence (P11166 whole entry): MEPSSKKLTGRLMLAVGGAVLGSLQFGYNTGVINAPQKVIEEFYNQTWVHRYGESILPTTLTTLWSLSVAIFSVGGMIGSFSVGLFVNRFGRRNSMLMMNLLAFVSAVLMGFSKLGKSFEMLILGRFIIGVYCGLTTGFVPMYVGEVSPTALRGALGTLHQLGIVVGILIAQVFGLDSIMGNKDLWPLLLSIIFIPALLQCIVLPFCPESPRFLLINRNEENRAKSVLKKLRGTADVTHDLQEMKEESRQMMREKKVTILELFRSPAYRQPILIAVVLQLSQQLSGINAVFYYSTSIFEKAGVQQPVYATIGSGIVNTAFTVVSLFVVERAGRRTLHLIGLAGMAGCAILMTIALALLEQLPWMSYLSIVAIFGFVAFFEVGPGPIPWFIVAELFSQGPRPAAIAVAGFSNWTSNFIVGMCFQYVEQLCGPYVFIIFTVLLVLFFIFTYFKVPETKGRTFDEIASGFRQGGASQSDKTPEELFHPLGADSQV
Binary classification by inhibition, with 2% as an inclusive lower bound for Satisfied; all other cases are Not satisfied.

See these solved cases before continuing.
COc1ccccc1CNC(=O)c1nn(-c2ccc(Cl)cc2)c(=O)c2ccccc12 ... Satisfied
C=CCOc1ccccc1CNCC(O)c1cc(Br)cs1 (centres undefined) ... Not satisfied
O=C(Cc1cccs1)NCC(c1ccccc1Cl)c1c[nH]c2ccccc12 (centres undefined) ... Satisfied
CCOC(=O)c1ccc(NC(=O)N(Cc2ccc(-c3ccc(CN4CCNCC4)cc3)cc2)C2CCN(Cc3ccccc3)CC2)cc1 ... Satisfied
O=C(NC1CCN(Cc2ccc(Cl)cc2)CC1)c1cn(-c2ccccc2)nc1-c1cccnc1 ... Not satisfied
O=C(Nc1ccc(C(F)(F)F)cc1)c1ccc(S(=O)(=O)NC2CCCN(CC3CCCCC3)C2)cc1 (centres undefined) ... Satisfied
CCCNCc1ccc(-c2ccc(CN(CCOC)C(=O)c3cscn3)cc2)nc1 ... Not satisfied
CC(C)N1CCC(N(Cc2ccc(-c3ccc(C(F)(F)F)cc3)cc2)C(=O)Cn2c(CCc3cccc(F)c3F)nc(=O)c3cccnc32)CC1 ... Satisfied

Lookup: Entry COc1ccc(CC(=O)NC(CCCN2CCC3(CC2)OCc2ccccc23)c2ccc(Cl)c(Cl)c2)cc1 (centres undefined) : is its inhibition no less than 2%?
Found: Not satisfied

* * *

molecular target: Hexose transporter 1 (Plasmodium falciparum) (UniProt O97467); test: ST_JUDE_LEISH: Cytotoxicity at 2uM final concentration against transgenic Leishmania Mexicana promastigotes LmPfHT that are glucose transport deficient and complemented with the Plasmodium falciparum hexose transporter. Activity is measured by DNA content using SYBR green in vitro; format: functional
reported.property: inhibition (%)
Respond numerically; units are % and should not be typed.

# annotated cases, reported inhibition shown
Oc1ccccc1-c1nc2cccnc2n1CCc1cccc(C(F)(F)F)c1 ... 3.7
COCCOC(=O)C(=O)c1c(-c2ccccc2)c(-c2ccc(OC)c(OC)c2)c2c3cc(OC)c(OC)cc3ccn12 ... 2.7
O=C(Nc1cccc(C(F)(F)F)c1)c1ccc(S(=O)(=O)NCC2CCCN(CC3CCCCC3)C2)cc1 (stereo not given) ... 0.41
CCc1nc2nc(C)cc(Nc3ccc(F)c(Cl)c3)n2n1 ... -3.69
Cc1[nH]c(C)c(-c2ccc(-c3ccc(Cl)cc3)nc2)c(=O)c1Br ... -0.24
COc1ccc(Nc2c3ccc(Cl)cc3nc3ccc(OC)cc23)cc1 ... 4.25
O=C(c1ccccc1F)N(Cc1ccc(Cl)cc1)c1ccccn1 ... 7.84
CCOCc1cnc(C)nc1CNC(=O)c1c(C)[nH]c2ccc(C)cc12 ... 0.7

Lookup: Respond only with inhibition recorded for Cc1ccccc1C1CCN(C2CCC(NC(=O)c3ccc(-c4cccs4)s3)CC2)CC1 (stereo not given)
Found: 1.24

Lookup: Respond only with inhibition recorded for "Cc1nc(-c2cccc(C(=O)Nc3cnc4ccccc4c3)c2)no1"
Found: 3.53

Lookup: Respond only with inhibition recorded for "O=C(O)CCSSc1cccc[n+]1[O-]"
Found: 48.3

Attribution: ChEMBL document CHEMBL3433997
